target: T1, MC-2 receptor, polypeptide of SEQ ID NO:16 (human, UniProt P33032 1-325)
T1 construct: Tested on COS-7 cells transfected with pE-MC-2; also called MSH receptor subtype; pE-MC-2 transfected COS-7 cells
T1 chain: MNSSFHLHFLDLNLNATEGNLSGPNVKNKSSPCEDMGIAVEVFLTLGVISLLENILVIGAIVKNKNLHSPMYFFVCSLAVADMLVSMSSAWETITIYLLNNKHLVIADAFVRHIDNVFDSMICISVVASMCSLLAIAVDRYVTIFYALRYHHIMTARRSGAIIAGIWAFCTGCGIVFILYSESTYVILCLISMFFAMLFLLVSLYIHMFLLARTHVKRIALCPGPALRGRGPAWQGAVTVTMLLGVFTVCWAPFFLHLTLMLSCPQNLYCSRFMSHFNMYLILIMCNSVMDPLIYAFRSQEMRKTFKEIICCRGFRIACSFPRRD
assay_procedure: competition with 125I-NDP-MSH on pE-MC-2 transfected COS-7 cells; Cheng-Prusoff from IC50
endpoint: Ki (nM)

binder="DEGPYRMEHFRWGSPPKD (peptide, UniProt P01189 217-234, looked up, domain: β-MSH; Bought from Saxon Biochemicals GmbH; also called beta-melanocyte stimulating hormone) [β-MSH]" endpoint=Ki unit_abbrev=nM result_number=1750
binder="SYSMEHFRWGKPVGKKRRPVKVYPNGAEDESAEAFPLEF (peptide, UniProt P01189 138-176, looked up, domain: ACTH (1-39); Bought from Saxon Biochemicals GmbH; also called adrenocorticotropic hormone (1-39)) [ACTH (1-39)]" endpoint=Ki unit_abbrev=nM result_number=929
